Please provide measured IC50 for the entries that follow.
# System: Staphylococcus aureus
# measurement-notes: Antimicrobial activity against methicillin-resistant Staphylococcus aureus by modified CLSI based method
# Format: functional, organism-based
Give bare numbers, in µg/mL.

Query block: Need IC50 of C=C1C[C@H]2C3=C(OC(C)(C)[C@@H]2CC1OO)C(=O)C(CCCCC)=CC3=O (stereo in doubt; 25) , thanks.
Result block: 5.78

New cases:
Query block: Need IC50 of C=C1C[C@H]2C3=C(OC(C)(C)[C@@H]2CC1OO)C(=O)C(CCCCC)=CC3=O (stereo in doubt; 26) , thanks.
Result block: 15.3

* * *

Please provide measured IC50 for the entries that follow.
# system-tested: Cannabinoid receptor 1 (Homo sapiens)
# Sequence (P21554 whole entry): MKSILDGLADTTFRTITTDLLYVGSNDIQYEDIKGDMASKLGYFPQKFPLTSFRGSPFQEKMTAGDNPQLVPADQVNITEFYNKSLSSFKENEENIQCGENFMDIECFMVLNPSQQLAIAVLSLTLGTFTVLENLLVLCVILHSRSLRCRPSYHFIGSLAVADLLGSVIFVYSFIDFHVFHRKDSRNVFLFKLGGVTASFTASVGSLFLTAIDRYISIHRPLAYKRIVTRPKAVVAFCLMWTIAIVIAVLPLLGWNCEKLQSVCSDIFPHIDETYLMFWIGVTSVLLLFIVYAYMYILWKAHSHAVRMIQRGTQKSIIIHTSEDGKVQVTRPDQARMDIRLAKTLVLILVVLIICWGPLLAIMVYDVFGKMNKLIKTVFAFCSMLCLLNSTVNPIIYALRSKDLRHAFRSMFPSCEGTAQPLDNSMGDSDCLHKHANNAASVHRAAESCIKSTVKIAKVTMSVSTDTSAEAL
# measurement-notes: Agonist activity at recombinant human full length CB1 receptor expressed in HEK293 cell membranes after 2 hrs by [35S]GTP-gammaS binding assay
# Format: functional
Numbers only, in nM.

Below: 2 compounds and their reported IC50.
Query block: Need IC50 of CCCCCc1cc2c(c(OS(=O)(=O)c3ccc(C)cc3)c1)[C@@H]1CC(C)(OO)C=C[C@H]1C(C)(C)O2 (stereo partly drawn) , thanks.
Result block: 97

Query block: Need IC50 of `CCCCCc1cc(OC(C)=O)c2c(c1)OC(C)(C)[C@@H]1CC=C(C)C[C@@H]21` , thanks.
Result block: 87

For the next question, use this compound.
Query block: Need IC50 of `CCCCCc1cc(O)c2c(c1)OC(C)(C)[C@@H]1C=C[C@@](C)(O)C[C@@H]21` , thanks.
Result block: 387

* * *

# Test system: Cryptococcus neoformans
# measurement-notes: Antifungal activity against Cryptococcus neoformans by alamar blue assay
# Assay type: functional, organism-based
# particulars: Cryptococcus neoformans; read-out: MIC
Please provide measured MIC for the entries that follow.
Numbers only, in µg/mL.

Query block: Need MIC of `CCCCCC1=CC(=O)C2=C(OC(C)(C)[C@@H]3CC[C@](C)(OCC)C=C23)C1=O` , thanks.
Result block: 2.5

Query block: Need MIC of `C=C1C[C@H]2C3=C(OC(C)(C)[C@@H]2C[C@H]1O)C(=O)C(CCCCC)=CC3=O` , thanks.
Result block: 5

Query block: Need MIC of C[C@@H]1[C@H](O)[C@@H](C)/C=C/C=C/C=C/C=C/C=C/C=C/C=C/[C@H](O[C@@H]2O[C@H](C)[C@@H](O)[C@H](N)[C@@H]2O)C[C@@H]2O[C@](O)(C[C@@H](O)C[C@@H](O)[C@H](O)CC[C@@H](O)C[C@@H](O)CC(=O)O[C@H]1C)C[C@H](O)[C@H]2C(=O)O [AMPHOTERICIN B] , thanks.
Result block: 2.5

Query block: Need MIC of C=C1C[C@H]2C3=C(OC(C)(C)[C@@H]2CC1OO)C(=O)C(CCCCC)=CC3=O (stereo in doubt; 25) , thanks.
Result block: 2.5

Give one value of MIC per listed compound.
1. CCCCCC1=CC(=O)C2=C(OC(C)(C)[C@@H]3C=CC(C)(OO)C[C@@H]23)C1=O (stereo partly specified)
2. CCCCCC1=CC(=O)C2=C(OC(C)(C)c3ccc(C)cc32)C1=O

Result block:
1: 2.5; 2: 20

Source listed as ChEMBL document CHEMBL4251600.
